- Tested on: extracellular matrix (ECM) components: Collagen type I, II, III and IV, elastin, hyaluronic acid and Geltrex
- protocol.description: ECM specificity binding test, whole panel
- measurement.parameters: 5.0 mg/ml peptide, FIG. 4
measurement.name: binding to the ECMs (for 17x-3: the ECMs other than hyaluronic acid)

KTKATVKIKNKQKSVNALKQKIVLLSK [Peptide 7c, 17x-3 variant] : moderate binding
TKAKIKHSVKLKAKLRIKLVKRI [Peptide 10K, five B(X7)B domains in 23 residues] : moderate binding

---

- protocol.description: Circular dichroism (CD) of peptides
- Type: physicochemical
- measurement.parameters: 20 mM Sodium Cacodylate, 5.0 mg/mL
measurement.name: wavelength Minimum of CD profile

Given LKTKIKIIVKTKSSAKLRSKLVNSHKI [Peptide 4, 8h-2 variant] , state its recorded wavelength Minimum of CD profile. 225 nm

Record request: wavelength Minimum of CD profile value, item TNLRNKYTFLARARANLAVRNKQNIKS [BHP4, variant of BHP3] 226 nm

Given the entry TKSKIKIVVKSKAKKLRLALVKRIKI [Peptide 6f-2, modification of mPEP35] , report its measured wavelength Minimum of CD profile. 221 nm

// returns reported wavelength Minimum of CD profile for input LKLKSSHSIKLKVKSKQRSALVSRQKA [Peptide 6b, mPEP35 variant] 227 nm

Need wavelength Minimum of CD profile of KTKATVKIKNKQKSVNALKQKIVLLSK [Peptide 7c, 17x-3 variant] , thanks. 225 nm

What wavelength Minimum of CD profile value was documented for this sequence, TQLRNKYTFLARARNALAVRTKQNIKS [BHP3, designed from 42 residue peptide BH-P] ? 226 nm

Which measured wavelength Minimum of CD profile value corresponds to TKAKIKHSVKLKAKLRIKLVKRI [Peptide 10K, five B(X7)B domains in 23 residues] ? 224 nm

For the sequence KTKATVLIKNKQKSKNALKQKIVLLSK [Peptide 17x-3, de novo designed peptide with five B(X7)B domains] , what wavelength Minimum of CD profile is on record? 223 nm

Request the reported wavelength Minimum of CD profile associated with TKTKIKIIVKLKSKAKLRIKLVKRHKS [Peptide 8h-2, modification of mPEP35] 224 nm

# wavelength Minimum of CD profile lookup, item ASNLTKAAKSLKVRVIKKTKQKQVLKVL [2nd de novo, five B(X7)B domains] 224-225 nm

---

Assignment: determine reported Ellipticity ratio (222 nm/208 nm) for the given sequences.
- protocol.description: Circular dichroism (CD) of peptides
- Type: physicochemical
- measurement.parameters: 20 mM Sodium Cacodylate, 1.25 mg/mL
API doc: respond with a numeric literal and nothing else, no unit.

Please report the recorded Ellipticity ratio (222 nm/208 nm) for TKTKIKIIVKLKSKAKLRIKLVKRHKS [Peptide 8h-2, modification of mPEP35] . 0.42

Query (sequence): TKSKIKIVVKSKAKKLRLALVKRIKI [Peptide 6f-2, modification of mPEP35] ; field requested: Ellipticity ratio (222 nm/208 nm) 0.52

Please look up its Ellipticity ratio (222 nm/208 nm): TKAKIKHSVKLKAKLRIKLVKRI [Peptide 10K, five B(X7)B domains in 23 residues] 0.67

Any idea what its Ellipticity ratio (222 nm/208 nm) is? The sequence is LKTKIKIIVKTKSSAKLRSKLVNSHKI [Peptide 4, 8h-2 variant] 0.54

Reported Ellipticity ratio (222 nm/208 nm), sequence ASNLTKAAKSLKVRVIKKTKQKQVLKVL [2nd de novo, five B(X7)B domains] : ____ 0.42

Quick check: Ellipticity ratio (222 nm/208 nm) of KTKATVLIKNKQKSKNALKQKIVLLSK [Peptide 17x-3, de novo designed peptide with five B(X7)B domains] ? 0.48

Which Ellipticity ratio (222 nm/208 nm) value belongs to KTKATVKIKNKQKSVNALKQKIVLLSK [Peptide 7c, 17x-3 variant] ? 0.46

Look up Ellipticity ratio (222 nm/208 nm): TQLRNKYTFLARARNALAVRTKQNIKS [BHP3, designed from 42 residue peptide BH-P] 0.79

Reported Ellipticity ratio (222 nm/208 nm) for TNLRNKYTFLARARANLAVRNKQNIKS [BHP4, variant of BHP3] : what is it? 0.81

---

- measured.target: elastin (Bos taurus, UniProt P04985)
- Construct: purchased Sigma-Aldrich
- Sequence (P04985 27-747): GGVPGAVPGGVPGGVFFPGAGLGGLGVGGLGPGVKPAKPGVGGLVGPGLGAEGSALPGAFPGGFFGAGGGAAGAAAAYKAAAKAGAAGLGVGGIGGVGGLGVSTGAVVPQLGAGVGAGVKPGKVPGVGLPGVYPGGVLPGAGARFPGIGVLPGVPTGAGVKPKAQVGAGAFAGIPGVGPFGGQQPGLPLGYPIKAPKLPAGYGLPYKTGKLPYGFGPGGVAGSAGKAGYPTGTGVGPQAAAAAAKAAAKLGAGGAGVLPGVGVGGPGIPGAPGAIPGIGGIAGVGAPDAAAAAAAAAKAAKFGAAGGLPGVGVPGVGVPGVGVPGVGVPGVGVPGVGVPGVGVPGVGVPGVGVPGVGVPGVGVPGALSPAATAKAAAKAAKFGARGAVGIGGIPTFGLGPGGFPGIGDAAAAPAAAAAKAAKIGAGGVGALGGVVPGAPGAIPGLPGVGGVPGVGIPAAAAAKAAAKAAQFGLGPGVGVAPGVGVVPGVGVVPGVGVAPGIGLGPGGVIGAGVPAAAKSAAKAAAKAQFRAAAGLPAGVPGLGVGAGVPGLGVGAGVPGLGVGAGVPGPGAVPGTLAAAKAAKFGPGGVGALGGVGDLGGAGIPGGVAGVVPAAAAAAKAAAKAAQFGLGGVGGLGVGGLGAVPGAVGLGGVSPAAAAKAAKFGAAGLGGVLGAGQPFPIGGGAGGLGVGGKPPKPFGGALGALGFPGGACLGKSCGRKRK
- protocol.description: ECM specificity binding test, elastin coating
- Set-up: species or system bovine
- measurement.parameters: 5.0 mg/ml peptide, FIG. 4
measurement.name: binding to elastin

LKTKIKIIVKTKSSAKLRSKLVNSHKI [Peptide 4, 8h-2 variant] : moderately
KTKATVKIKNKQKSVNALKQKIVLLSK [Peptide 7c, 17x-3 variant] : predominantly
TNLRNKYTFLARARANLAVRNKQNIKS [BHP4, variant of BHP3] : moderately
TKAKIKHSVKLKAKLRIKLVKRI [Peptide 10K, five B(X7)B domains in 23 residues] : predominantly

---

Field: Ellipticity 222 nm. Provide a value for each of the sequences that follow.
- protocol.description: Circular dichroism (CD) of peptides
- Format: physicochemical
- measurement.parameters: 20 mM Sodium Cacodylate, 20% TFE, 1.25 mg/mL; CD data given as [θ]M×10^−3

Please give the measured Ellipticity 222 nm for this sequence: KTKATVKIKNKQKSVNALKQKIVLLSK [Peptide 7c, 17x-3 variant] −259

So what does the record say about Ellipticity 222 nm for TKSKIKIVVKSKAKKLRLALVKRIKI [Peptide 6f-2, modification of mPEP35] ? −257

Report Ellipticity 222 nm for LKTKIKIIVKTKSSAKLRSKLVNSHKI [Peptide 4, 8h-2 variant] please. −353

Query: Ellipticity 222 nm; subject: ASNLTKAAKSLKVRVIKKTKQKQVLKVL [2nd de novo, five B(X7)B domains] −333

---

For each record, write down the corresponding Ellipticity 208 nm.
- protocol.description: Circular dichroism (CD) of peptides
- Type: physicochemical
- measurement.parameters: 20 mM Sodium Cacodylate, 20% TFE, 1.25 mg/mL; CD data given as [θ]M×10^−3
Just the number, please.

Param item = LKTKIKIIVKTKSSAKLRSKLVNSHKI [Peptide 4, 8h-2 variant] ; retrieve measured Ellipticity 208 nm. −364

Look at this sequence and give its reported Ellipticity 208 nm. TKSKIKIVVKSKAKKLRLALVKRIKI [Peptide 6f-2, modification of mPEP35] −306

Can you share its Ellipticity 208 nm? I mean this sequence: KTKATVLIKNKQKSKNALKQKIVLLSK [Peptide 17x-3, de novo designed peptide with five B(X7)B domains] −175
